# credit: ChEMBL document CHEMBL5108030

- targetOfAssay: AMP-activated protein kinase, AMPK
- assayExplanation: Activation of AMPK in human HepG2 cells assessed as increase in ACC phosphorylation at Ser79 incubated for 1 hr
For each of the compounds below, state its pEC50.
// pEC50 is dimensionless: -log10 of concentration (M)

What value of measured pEC50 is listed for N#Cc1ccc(CN2CCC(NC(=O)c3ccc(C(=O)N4CCN(Cc5ccc(F)cc5)C(=O)C4)cn3)CC2)cc1 ?
6.33

Need pEC50 of N#Cc1ccc(S(=O)(=O)N2CCC(NC(=O)c3ccc(C(=O)N4CCN(Cc5ccc(F)cc5)CC4)cn3)CC2)cc1 , thanks.
6.09

Would you kindly share the measured pEC50 for N#Cc1ccc(CN2CCC(NC(=O)c3ccc(C(=O)N4CCC(C(=O)c5ccc(C#N)cc5)CC4)cn3)CC2)cc1 ?
8.30

So what does the record say about pEC50 for COc1ccc(C(=O)N2CCN(C(=O)c3ccc(C(=O)NC4CCN(Cc5ccc(C#N)cc5)CC4)nc3)CC2)cc1 ?
6.76

Which pEC50 value belongs to N#Cc1ccc(CN2CCC(NC(=O)c3ccc(C(=O)N4CCC(C(=O)c5ccc(F)cc5)CC4)cn3)CC2)cc1 ?
8.70

State the recorded pEC50 for this entry: COc1ccc(C(=O)C2CCN(C(=O)c3ccc(C(=O)NC4CCN(Cc5ccc(C#N)cc5)CC4)cn3)CC2)cc1
7.51
